target: human p38 kinase alpha (Homo sapiens); construct: GST (N, cleaved yes); made in house; host or cells: E. coli DH10B; test: p38 kinase in vitro assay, phosphorylation of biotinylated PHAS-I with 32P-ATP; format: biochemical; details: in vitro P38-alpha kinase inhibition; read-out: P38 alpha kinase IC50
Sequence (Q16539 whole entry): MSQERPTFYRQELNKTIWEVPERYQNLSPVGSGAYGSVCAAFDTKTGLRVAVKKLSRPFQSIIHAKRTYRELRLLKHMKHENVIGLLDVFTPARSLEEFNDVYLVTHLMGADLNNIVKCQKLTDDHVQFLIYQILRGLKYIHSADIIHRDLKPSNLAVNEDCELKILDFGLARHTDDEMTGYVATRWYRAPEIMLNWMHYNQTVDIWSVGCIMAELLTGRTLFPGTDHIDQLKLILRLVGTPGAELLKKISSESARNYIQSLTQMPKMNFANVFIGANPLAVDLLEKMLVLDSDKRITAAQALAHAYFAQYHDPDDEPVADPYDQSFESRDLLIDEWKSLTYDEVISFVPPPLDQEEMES
The recorded IC50 of each item maps onto one of these classes: range 1 (below 0.2 µM), range 2 (0.2 µM to below 2 µM), range 3 (2 µM or more)

CC(NC(=O)NC(C)c1[nH]nc(-c2ccc(F)cc2)c1-c1ccncc1)c1ccccc1 (stereo not drawn) [Example B-0414] :: range 3
CC(C)c1ccc(S(=O)(=O)NCCc2[nH]nc(-c3ccc(F)cc3)c2-c2ccncc2)cc1 :: range 2
CC(NC(=O)c1cccc(C#N)c1)c1[nH]nc(-c2ccc(F)cc2)c1-c1ccncc1 (stereo not drawn) :: range 3
CC(NS(=O)(=O)c1ccc(Cl)s1)c1[nH]nc(-c2ccc(F)cc2)c1-c1ccncc1 (stereo not drawn) :: range 1
CC(NS(=O)(=O)c1ccc(-c2ccon2)s1)c1[nH]nc(-c2ccc(F)cc2)c1-c1ccncc1 (stereo not drawn) :: range 1
O=C(NCCc1[nH]nc(-c2ccc(F)cc2)c1-c1ccncc1)c1c(F)cccc1F :: range 2
O=S(=O)(NC(Cc1ccccc1)c1[nH]nc(-c2ccc(F)cc2)c1-c1ccncc1)c1ccc(F)cc1F (stereo not drawn) [Example B-0712] :: range 3
CC(NC(=O)c1ccc(Cl)cc1)c1[nH]nc(-c2ccc(F)cc2)c1-c1ccncc1 (stereo not drawn) :: range 3
O=C(NCCc1[nH]nc(-c2ccc(F)cc2)c1-c1ccncc1)c1c(Cl)cccc1Cl :: range 1
O=C(NCCc1[nH]nc(-c2ccc(F)cc2)c1-c1ccncc1)c1cc(C(F)(F)F)ccc1F :: range 2
Cc1ccc(S(=O)(=O)NC(C)c2[nH]nc(-c3ccc(F)cc3)c2-c2ccncc2)cc1 (stereo not drawn) :: range 1
CCN(CC)C(=O)NC(C)c1[nH]nc(-c2ccc(F)cc2)c1-c1ccncc1 (stereo not drawn) :: range 2
